# assayProcedure: melting temperature; fluorescence melt of hairpins on a sequencing array, two-state fit, raised by 9.35 °C to match UV melts
# conditionInfo: sodium 0.088 M
I'd be grateful if you could share measured Tm for these entries.
One number for each entry, in °C.

Examples from the recorded data:
TACTGGAAACAGTA (((((....))))); 36.8
GTCGAACCGAAAGGTGAC (((..(((....)))))); 42
GAGACTGGAAACGGTCTC (((((.(....).))))); 49.9
GGGAGCGAAAGCTGCCC ((((((....))).))); 60.5
GCAACGCGAAAGCGGAGC ((..(((....)))..)); 63.9
GTTTGTGGAAACACAAAC (((((((....))))))); 58.4
GCCCGCGGAAACGCGAGC ((.((((....)))).)); 62.2
GGCACCCCGAAAGGGGCC (((..(((....)))))); 53.1

// for each sequence below, give its Tm
1. GCTACAGCGAAAGCTAGC (((..(((....))))))
2. GCGGCGCACCGC ((((....))))
3. GGTCACGGAAACGCGACC ((((.((....)).))))

a:
1. 44.5
2. 59.7
3. 54.4

q: Look at this sequence and give its reported Tm. GATCGCTCATGCGATC ((((((....))))))
a: 67.8

* * *

# assayProcedure: melting temperature; fluorescence melt of hairpins on a sequencing array, two-state fit, raised by 9.35 °C to match UV melts
# conditionInfo: sodium 0.088 M
Lab note: anything with Tm below 50 °C is marked t; values at 50 °C or higher are marked f.

GGGGGCGAAAGCCCACCC ((((((....)))..))); f
GGGAGAGAAATCTCCC ((((((....)))))); f
GATCCCTTACGGGATC ((((((....)))))); f
GGGCCGGGAAACTGGCCC (((((.(....).))))); f
GGACAAGGAAACTTGCCC ((.((((....)))).)); t

q: Does the reported Tm of GATCACGCAGGTGATC ((((((....)))))) stay below 50 °C?
a: f

q: Does the reported Tm of GGTTATGGAAACATAACC (((((((....))))))) stay below 50 °C?
a: f

* * *

# assayProcedure: melting temperature; fluorescence melt of hairpins on a sequencing array, two-state fit, raised by 9.35 °C to match UV melts
# conditionInfo: sodium 0.088 M
Lab note: anything with Tm below 40 °C is marked T; values at 40 °C or higher are marked F.

Examples from the recorded data:
GTAGGTGGAAACACTTGC (.(.(((....))).).); T
GCGGGATCGAAAGATCGC (((..(((....)))))); F
GGGAGAGGAAACTTTCCC ((((.((....)).)))); F

q: Does the reported Tm of GCCGACGGAAACACCGGC ((((..(....)..)))) stay below 40 °C?
a: F

q: Does the reported Tm of CGCGGAAAAACCGCG ((...........)) stay below 40 °C?
a: F

q: Does the reported Tm of AGACTGAAAAGTCT (((((....))))) stay below 40 °C?
a: F

q: Does the reported Tm of GCTTACCGAAAGGTGAGC (((.(((....))).))) stay below 40 °C?
a: F

q: Does the reported Tm of GTTTCGGGAAACTGAAGC (.(((.(....).))).) stay below 40 °C?
a: T

q: Does the reported Tm of GTTATGGGAAACTATAAC (((((.(....).))))) stay below 40 °C?
a: T

q: Does the reported Tm of GTCTCGGGAAACTGAGAC (((((.(....).))))) stay below 40 °C?
a: F

q: Does the reported Tm of GGCGAAGGAAACTTCGTC (.(((((....))))).) stay below 40 °C?
a: F
